assay-system: GSK3β (h) (Homo sapiens, UniProt P49841)
Sequence (P49841 whole entry): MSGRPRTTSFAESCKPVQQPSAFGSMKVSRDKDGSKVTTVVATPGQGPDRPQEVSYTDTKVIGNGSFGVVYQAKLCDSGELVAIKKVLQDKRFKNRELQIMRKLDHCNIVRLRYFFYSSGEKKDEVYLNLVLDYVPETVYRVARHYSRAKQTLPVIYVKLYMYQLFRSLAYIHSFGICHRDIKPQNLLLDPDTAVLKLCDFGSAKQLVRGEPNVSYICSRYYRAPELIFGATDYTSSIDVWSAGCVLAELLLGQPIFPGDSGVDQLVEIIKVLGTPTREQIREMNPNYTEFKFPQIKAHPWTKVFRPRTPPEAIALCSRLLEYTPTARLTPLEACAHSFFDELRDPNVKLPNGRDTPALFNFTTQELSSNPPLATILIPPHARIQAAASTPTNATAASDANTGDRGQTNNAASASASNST
experiment-summary: GSK-3β human kinase inhibition, SPA
Format: biochemical
conditions: read-out: GSK3b pIC50 (converted)
Procedure: The in vitro inhibition of a panel of kinases was assessed using either the scintillation proximity assay (SPA) as described by Cook, N. D. et al., Advances in Experimental Medicine and Biology (1991), 36; p. 525-528. In the SPA technology the activity of the kinase of interest is measured using an appropriate biotinylated substrate that is incubated with the aforementioned kinase protein in the presence of (^33P) radiolabeled ATP. […] The scintillation intensity is detected by imaging on Leadseeker. […]
outcome-measure: IC50

# count of solved cases: 2
CC(C)(C)O[C@@H]1C[C@H]2C(=O)NCc3cccc(c3)-c3ccnc(n3)Nc3ccccc3CN2C1 [Compound 58] | > 10 µM
O=C1CN2CCN(CC2)Cc2cc(ccc2N2CCOCC2)Nc2nccc(n2)-c2ccc(cc2)CNCCN1 [Compound 125] | > 10 µM

Need IC50 of CN1CCCNC(=O)[C@H](CO)NCc2cccc(c2)Nc2nccc(n2)-c2ccc(cc2)C1 [Compound 113] , thanks.
> 10 µM

May I ask what IC50 has been recorded for O=C1NCc2ccc(cc2)-c2ccnc(n2)Nc2ccc(N3CCOCC3)c(c2)CN2CCC1CC2 [Compound 12] ?
~10.5 µM

Recorded IC50 for COc1ccc2cc1CNCCCNC(=O)C1CCN(CC1)Cc1cc(ccc1N1CCOCC1)Nc1nccc-2n1 [Compound 3] , please?
> 10 µM

Each recorded value in this set is attributed to patent US8609836B2.
